# Test: Solubility of ropivacaine in various aqueous media
# Format: physicochemical
# Conditions used: PBS + 0.1% SDS, pH 7.4, aqueous with cosolvent or surfactant or cyclodextrin
Experimental endpoint: solubility (µg/mL)

> print(dat)
               smiles.representation  experimental.endpoint  unit.string  value.measured
1  CCCN1CCCC[C@H]1C(=O)Nc1c(C)cccc1C             solubility        µg/mL             306

----------
# Test: Solubility of ropivacaine in various aqueous media
# Format: physicochemical
# Conditions used: PBS + 0.05% SDS, pH 7.4, aqueous with cosolvent or surfactant or cyclodextrin
Experimental endpoint: solubility (µg/mL)

> print(dat)
               smiles.representation  unit.string  value.measured
1  CCCN1CCCC[C@H]1C(=O)Nc1c(C)cccc1C        µg/mL             254

----------
# Test: Solubility of ropivacaine in various aqueous media
# Format: physicochemical
# Conditions used: PBS + 68 mg/mL BSA, pH 7.4, plasma or biological fluid
Experimental endpoint: solubility (µg/mL)

> print(dat)
                                   molecule  experimental.endpoint  unit.string  value.measured
1  CCCN1CCCC[C@H]1C(=O)Nc1c(C)cccc1C [ropivacaine]             solubility        µg/mL             792

----------
# Test: Solubility of ropivacaine in various aqueous media
# Assay type: physicochemical
# Conditions used: aqueous buffer; PBS (pH 7.4)
Experimental endpoint: solubility (µg/mL)

> print(dat)
                                   compound  experimental.endpoint  unit.string  value.measured
1  CCCN1CCCC[C@H]1C(=O)Nc1c(C)cccc1C [ropivacaine]             solubility        µg/mL             254

----------
# Test: Solubility of ropivacaine in various aqueous media
# Type: physicochemical
# Conditions used: PBS + 0.2% SDS, pH 7.4, aqueous with cosolvent or surfactant or cyclodextrin
Experimental endpoint: solubility (µg/mL)

> print(dat)
               smiles.representation  unit.string  value.measured
1  CCCN1CCCC[C@H]1C(=O)Nc1c(C)cccc1C        µg/mL             350
